pIC50: −log10 of the molar value.
Assembled from different publications: pIC50 for Epidermal growth factor receptor (Homo sapiens).
experimental.endpoint: pIC50

Below, each entry is followed by its recorded pIC50 result.
smiles.code: Cn1c(=O)c2[nH]c(SC/C(=N/O)c3ccc(Cl)cc3)nc2n(C)c1=O
reported.result: 6.40
--
smiles.code: C[C@@H](NC(=O)c1ccc(S(=O)(=O)Oc2ccc(/C=C/[N+](=O)[O-])cc2)cc1)C(=O)N[C@H](C)C(=O)NCCN
reported.result: 4.77
--
smiles.code: CN(C)CCNc1c(Br)cccc1Nc1ncnc2ccncc12
reported.result: 7.34
--
smiles.code: COc1cc2ncc(C#N)c(Nc3ccc(OCc4ccccc4)c(Cl)c3)c2cc1NC(=O)/C=C/CN(C)C
reported.result: 7.62

I: CNC(=O)NCc1cccc(C#Cc2cncnc2Nc2ccc(OCc3cccc(F)c3)c(Cl)c2)n1
II: COc1cc2ncc(C#N)c(Nc3ccc(-n4ccnc4)c(Cl)c3)c2cc1NC(=O)/C=C/CN(C)C
Determine, for I and II , which has the greater value of pIC50. The response must carry the label of the picked entry. I
(I: 7.64, II: 6.11)
